Taken from patent US20200199102A1.

Exercise: state measured % signal for each of the compounds provided.
- TARGET_OR_SYSTEM: Cyclophilin A (Homo sapiens, UniProt P62937)
- Construct: made in house
- Sequence (P62937 whole entry, species assumed): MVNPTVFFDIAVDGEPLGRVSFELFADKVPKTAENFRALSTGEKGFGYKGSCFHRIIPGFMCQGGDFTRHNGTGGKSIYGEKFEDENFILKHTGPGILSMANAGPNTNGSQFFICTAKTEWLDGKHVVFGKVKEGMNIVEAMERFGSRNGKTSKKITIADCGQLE
- ASSAY_NOTES: AlphaLISA inhibition of binding of biotinylated Cyclosporin A to FLAG tagged Cyclophilin A
- TEST_SETTINGS: AlphaLISA signal; test concentration not given
Where a SMILES comes first, the peptide text is derived from it. [ ]: non-standard residue; d: D form. MeBmt = C/C=C/C[C@@H](C)[C@@H](O)[C@H](NC)C(=O)O; NMeY = CN[C@@H](Cc1ccc(O)cc1)C(=O)O; NMeL = CN[C@@H](CC(C)C)C(=O)O; NMeV = CN[C@H](C(=O)O)C(C)C; NMeA = CN[C@@H](C)C(=O)O; Abu = CC[C@H](N)C(=O)O; Sar = CNCC(=O)O
Could you kindly put the unit after your number?

Ask: I have this compound here, C/C=C/C[C@@H](C)[C@@H](O)[C@H]1C(=O)N[C@@H](CC)C(=O)N(C)CC(=O)N(C)CC(=O)N[C@@H](C(C)C)C(=O)N(C)[C@@H](C)C(=O)N[C@@H](CC(C)C)C(=O)N[C@H](C)C(=O)N(C)[C@@H](CC(C)C)C(=O)N(C)[C@@H](CC(C)C)C(=O)N(C)[C@@H](C(C)C)C(=O)N1C [Compound C85] (cyclo([MeBmt][Abu][Sar][Sar]V[NMeA]L[dA][NMeL][NMeL][NMeV])) , and I need its recorded % signal.
Reply: 0.87%

Ask: // query % signal value for entry C/C=C/C[C@@H](C)[C@@H](O)[C@H]1C(=O)N[C@@H](CC)C(=O)N(C)CC(=O)N(C)[C@@H](Cc2ccc(O)cc2)C(=O)N[C@@H](C(C)C)C(=O)N(C)[C@@H](CC(C)C)C(=O)N[C@@H](CC(C)C)C(=O)N[C@H](C)C(=O)N(C)[C@@H](CC(C)C)C(=O)N(C)[C@@H](CC(C)C)C(=O)N(C)[C@@H](C(C)C)C(=O)N1C [Compound C52] (cyclo([MeBmt][Abu][Sar][NMeY]V[NMeL]L[dA][NMeL][NMeL][NMeV]))
Reply: 7.40%

====

- TARGET_OR_SYSTEM: Cyclophilin A (Homo sapiens)
- Construct: made in house
- ASSAY_NOTES: AlphaLISA inhibition of binding of biotinylated Cyclosporin A to FLAG tagged Cyclophilin A
- TEST_SETTINGS: AlphaLISA signal; test concentration not given
Where a SMILES comes first, the peptide text is derived from it. [ ]: non-standard residue; d: D form. MeBmt = C/C=C/C[C@@H](C)[C@@H](O)[C@H](NC)C(=O)O; NMeY = CN[C@@H](Cc1ccc(O)cc1)C(=O)O; NMeL = CN[C@@H](CC(C)C)C(=O)O; dNMeV = CN[C@@H](C(=O)O)C(C)C; NMeV = CN[C@H](C(=O)O)C(C)C; NMeA = CN[C@@H](C)C(=O)O; Abu = CC[C@H](N)C(=O)O; Sar = CNCC(=O)O
# cutoff 1% applies to % signal; >= gives condition met, < gives condition not met

Ask: Decide: % signal of C/C=C/C[C@@H](C)[C@@H](O)[C@H]1C(=O)N[C@@H](CC)C(=O)N(C)CC(=O)N(C)[C@H](C(C)C)C(=O)N[C@@H](CC(C)C)C(=O)N(C)[C@@H](CC(C)C)C(=O)N[C@@H](CC(C)C)C(=O)N[C@H](C)C(=O)N(C)[C@@H](CC(C)C)C(=O)N(C)[C@@H](CC(C)C)C(=O)N(C)[C@@H](C(C)C)C(=O)N1C [Compound C67] (cyclo([MeBmt][Abu][Sar][dNMeV]L[NMeL]L[dA][NMeL][NMeL][NMeV])) >= 1%?
Reply: condition met

Ask: Exam item: decide whether the reported % signal for C/C=C/C[C@@H](C)[C@@H](O)[C@H]1C(=O)N[C@@H](CC)C(=O)N(C)CC(=O)N(C)[C@@H](Cc2ccc(O)cc2)C(=O)N[C@@H](C(C)C)C(=O)N(C)[C@@H](CC(C)C)C(=O)N[C@@H](CC)C(=O)N[C@H](C)C(=O)N(C)[C@@H](CC(C)C)C(=O)N(C)[C@@H](CC(C)C)C(=O)N(C)[C@@H](C(C)C)C(=O)N1C [Compound C100] (cyclo([Abu][Sar][NMeY]V[NMeL][Abu][dA][NMeL][NMeL][NMeV][MeBmt])) is at least 1%.
Reply: condition met

Ask: # check: % signal of C/C=C/C[C@@H](C)[C@@H](O)[C@H]1C(=O)N[C@@H](CC)C(=O)N(C)CC(=O)N(C)[C@@H](C)C(=O)N[C@@H](C(C)C)C(=O)N(C)[C@@H](C)C(=O)N[C@@H](CC(C)C)C(=O)N[C@H](C)C(=O)N(C)[C@@H](CC(C)C)C(=O)N(C)[C@@H](CC(C)C)C(=O)N(C)[C@@H](C(C)C)C(=O)N1C [Compound C82] (cyclo([MeBmt][Abu][Sar][NMeA]V[NMeA]L[dA][NMeL][NMeL][NMeV])) is greater than or equal to 1%
Reply: condition not met

Ask: Quick check: does C/C=C/C[C@@H](C)[C@@H](O)[C@H]1C(=O)N[C@@H](CC)C(=O)N(C)CC(=O)N(C)[C@@H](Cc2ccc(O)cc2)C(=O)N[C@@H](C(C)C)C(=O)N(C)CC(=O)N[C@@H](C)C(=O)N[C@H](C)C(=O)N(C)[C@@H](CC(C)C)C(=O)N(C)[C@@H](CC(C)C)C(=O)N(C)[C@@H](C(C)C)C(=O)N1C [Compound C32] (cyclo([MeBmt][Abu][Sar][NMeY]V[Sar]A[dA][NMeL][NMeL][NMeV])) have % signal greater than or equal to 1%?
Reply: condition not met

====

Please go through the items and note down their IC50.
Where a SMILES comes first, the peptide text is derived from it. [ ]: non-standard residue; d: D form. MeBmt = C/C=C/C[C@@H](C)[C@@H](O)[C@H](NC)C(=O)O; NMeF = CN[C@@H](Cc1ccccc1)C(=O)O; NMeI = CC[C@H](C)[C@H](NC)C(=O)O; NMeL = CN[C@@H](CC(C)C)C(=O)O; NMeV = CN[C@H](C(=O)O)C(C)C; Abu = CC[C@H](N)C(=O)O; Sar = CNCC(=O)O

Ask: Query IC50 on Cyclophilin A (Homo sapiens) for C/C=C/C[C@@H](C)[C@@H](O)[C@H]1C(=O)N[C@@H](CC)C(=O)N(C)CC(=O)N(C)[C@@H]([C@@H](C)CC)C(=O)N[C@@H](C)C(=O)N(C)CC(=O)N[C@@H](C)C(=O)N[C@H](C)C(=O)N(C)[C@@H](CC(C)C)C(=O)N(C)[C@@H](CC(C)C)C(=O)N(C)[C@@H](C(C)C)C(=O)N1C [Compound C17] (cyclo([MeBmt][Abu][Sar][NMeI]A[Sar]A[dA][NMeL][NMeL][NMeV]))
Reply: < 2000 nM

Ask: Write down the reported IC50 of C/C=C/C[C@@H](C)[C@@H](O)[C@H]1C(=O)N[C@@H](CC)C(=O)N(C)CC(=O)N(C)[C@@H](Cc2ccccc2)C(=O)N[C@@H](CC(C)C)C(=O)N(C)[C@@H](CC(C)C)C(=O)N[C@@H](CC(C)C)C(=O)N[C@H](C)C(=O)N(C)[C@@H](CC(C)C)C(=O)N(C)[C@@H](CC(C)C)C(=O)N(C)[C@@H](C(C)C)C(=O)N1C [Compound C60] (cyclo([MeBmt][Abu][Sar][NMeF]L[NMeL]L[dA][NMeL][NMeL][NMeV])) , test system: Cyclophilin A (Homo sapiens).
Reply: < 2000 nM

Ask: Find the measured IC50: item C/C=C/C[C@@H](C)[C@@H](O)[C@H]1C(=O)N[C@@H](CC)C(=O)N(C)CC(=O)N(C)CC(=O)N[C@@H](C(C)C)C(=O)N(C)[C@@H](CC(C)C)C(=O)N[C@@H](CC(C)C)C(=O)N[C@H](C)C(=O)N(C)[C@@H](CC(C)C)C(=O)N(C)[C@@H](CC(C)C)C(=O)N(C)[C@@H](C(C)C)C(=O)N1C [Compound C49] (cyclo([MeBmt][Abu][Sar][Sar]V[NMeL]L[dA][NMeL][NMeL][NMeV])) , target or system Cyclophilin A (Homo sapiens).
Reply: < 2000 nM

====

- TARGET_OR_SYSTEM: Cyclophilin A (Homo sapiens)
- Construct: made in house
- ASSAY_NOTES: AlphaLISA inhibition of binding of biotinylated Cyclosporin A to FLAG tagged Cyclophilin A
- TEST_SETTINGS: test concentration not given
- Experimental: The binding of compounds of the invention to Cyclophilin A can be determined using the following protocol. […] Add 20 uL of 6 nM Biotinylated CsA working stock to each well of the 96-well plate. […] Protect plate from light until reading on Biotek Synergy2 Plate Reader; Alphalisa 96-well protocol (680 excitation/615 emission).
Where a SMILES comes first, the peptide text is derived from it. [ ]: non-standard residue; d: D form. MeBmt = C/C=C/C[C@@H](C)[C@@H](O)[C@H](NC)C(=O)O; NMeL = CN[C@@H](CC(C)C)C(=O)O; Tle = CC(C)(C)[C@H](N)C(=O)O; NMeV = CN[C@H](C(=O)O)C(C)C; NMeA = CN[C@@H](C)C(=O)O; Abu = CC[C@H](N)C(=O)O; Sar = CNCC(=O)O
MEASUREMENT_LABEL: % inhibition of CsA binding to Cyclophilin A (%)
Quick reminder: number only, in %, skip the unit.

Ask: GET /values?readout=% inhibition of CsA binding to Cyclophilin A&item= C/C=C/C[C@@H](C)[C@@H](O)[C@H]1C(=O)N[C@@H](CC)C(=O)N(C)CC(=O)N(C)CC(=O)N[C@@H](C(C)C)C(=O)N(C)[C@@H](C)C(=O)N[C@@H](C)C(=O)N[C@H](C)C(=O)N(C)[C@@H](CC(C)C)C(=O)N(C)[C@@H](CC(C)C)C(=O)N(C)[C@@H](C(C)C)C(=O)N1C [Compound C5] (cyclo([MeBmt][Abu][Sar][Sar]V[NMeA]A[dA][NMeL][NMeL][NMeV]))
Reply: 90.91

Ask: Give the measured % inhibition of CsA binding to Cyclophilin A of C/C=C/C[C@@H](C)[C@@H](O)[C@H]1C(=O)N[C@@H](CC)C(=O)N(C)CC(=O)N(C)[C@@H](C)C(=O)N[C@@H](C(C)(C)C)C(=O)N(C)[C@@H](C)C(=O)N[C@@H](CC(C)C)C(=O)N[C@H](C)C(=O)N(C)[C@@H](CC(C)C)C(=O)N(C)[C@@H](CC(C)C)C(=O)N(C)[C@@H](C(C)C)C(=O)N1C [Compound C70] (cyclo([MeBmt][Abu][Sar][NMeA][Tle][NMeA]L[dA][NMeL][NMeL][NMeV])) .
Reply: 99.95

Ask: Bench note: what % inhibition of CsA binding to Cyclophilin A did C/C=C/C[C@@H](C)[C@@H](O)[C@H]1C(=O)N[C@@H](CC)C(=O)N(C)CC(=O)N(C)[C@@H](CC(C)C)C(=O)N[C@@H](C)C(=O)N(C)CC(=O)N[C@@H](C)C(=O)N[C@H](C)C(=O)N(C)[C@@H](CC(C)C)C(=O)N(C)[C@@H](CC(C)C)C(=O)N(C)[C@@H](C(C)C)C(=O)N1C [Compound C22] (cyclo([MeBmt][Abu][Sar][NMeL]A[Sar]A[dA][NMeL][NMeL][NMeV])) show?
Reply: 94.03
